Target: RSV F protein of subtype B strain 18537, on virus (respiratory syncytial virus subtype B …, UniProt P13843 26-574)
Sequence (P13843 26-574): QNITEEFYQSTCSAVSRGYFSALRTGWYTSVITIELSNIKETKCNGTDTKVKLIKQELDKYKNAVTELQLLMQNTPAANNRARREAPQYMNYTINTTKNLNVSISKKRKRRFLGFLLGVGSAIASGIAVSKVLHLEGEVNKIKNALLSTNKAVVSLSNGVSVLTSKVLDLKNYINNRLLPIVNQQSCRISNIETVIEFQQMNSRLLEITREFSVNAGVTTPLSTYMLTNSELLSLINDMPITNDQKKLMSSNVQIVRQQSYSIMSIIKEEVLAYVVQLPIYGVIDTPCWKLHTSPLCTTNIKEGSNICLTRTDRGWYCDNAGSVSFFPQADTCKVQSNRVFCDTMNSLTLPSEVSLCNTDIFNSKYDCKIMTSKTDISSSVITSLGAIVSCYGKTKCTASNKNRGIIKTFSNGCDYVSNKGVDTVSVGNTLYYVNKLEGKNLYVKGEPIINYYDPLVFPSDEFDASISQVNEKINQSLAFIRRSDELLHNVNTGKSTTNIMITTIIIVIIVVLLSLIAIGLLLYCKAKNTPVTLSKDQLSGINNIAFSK
Test: cell-based or functional assay
Metric name: Neut IC50 (ug/ml) subtype B (µg/mL)
Reply with just the number (in µg/mL).

Answered examples (2):
>>> recorded_measurement("ADI-15650 (antibody, V domains shown, IgG; also called Antibody Number 214) VH: EVQLVESGGGLIQPGGSLRLSCAASGFTVSSKYMSWVRQAPGKGLEWVSIIYSGGSTYYADSVKGRFTISRDNSKNTLYLQMNSLRAEDTAVYYCARDDYDFWSGNGPPEMAVWGQGTTVTVSS VL: DMRLTQSPSSLSASVGDRVTITCRASQGISNYLAWYQQRPGKVPQLLIYTASTLQSGVPSRFSGSGSETDFTLTISSLQPEDVATYYCQKYDSVPLTFGQGTKVEIK")
0.016
>>> recorded_measurement("ADI-15651 (antibody, V domains shown, IgG) VH: EVQLVESGPALVKPTQTLTLTCTVSGGVERMSVSWVRQPPGKALEWLARIDWDDDKYYNTFLKTRLTISKGTSKNEVVLTMTNMDPEDTAIYYCARTNRYDKSGYYLYYLDYWGQGTLVTVSS VL: DIQMTQSPSSLSASVGDKVTITCRASQTIASYVNWYQQHPGKAPKLLIYLASRLQSGAPSRFSGSGSGTDFTLTILNLQPEDFATYYCQQSYSSFFTFGPGTKVEIK")
3.29

Kindly consider the entry below.
q: Check the records and state Neut IC50 (ug/ml) subtype B for ADI-15637 (antibody, V domains shown, IgG; also called Antibody Number 202) VH: QVQLVQSGAEVTKPGASVRVSCKFSAYTLSALSIHWVRQAPGKGLEWMGAFDPEDGEPIYSQHFQGRVTMTEDTSTQTAYMELNSLRSEDTAVYYCSSVGPAGWFDPWGQGTLVTVSS VL: DIRLTQSPSSLSASVGDRVSITCRASQSISSYLHWYQQKPGKAPKLLIYAASSLQSGVPSRFSGSGSGSDFTLTISSLQPEDFATYYCHQSYIPPFTFGPGTKLEIK
a: 1.05
